Provenance of the data: patent US4118424A

Test system: Anopheles albimanus adults
assay_summary: Insect toxicity, Anopheles albimanus adults
Type: in vivo
Note to self: class labels come from recorded Anopheles albimanus adults LC50, ranges listed here: LOW (below 6 ug/cm^2), MID (6 ug/cm^2 to below 20 ug/cm^2), HIGH (20 ug/cm^2 or more)

> print(dat)
                                    compound  class.assignment
 1       Cc1ccc(C(c2ccc(C)cc2)C(C)(Cl)Cl)cc1               LOW
 2  CCCc1ccc(C(c2ccc(CCC)cc2)C(C)Cl)cc1 (centres unmarked)               MID
 3      COc1ccc(C(c2ccc(OC)cc2)C(C)(C)Cl)cc1               MID
 4  CCOc1ccc(C(c2ccc(C)cc2)C(C)C)cc1 (centres unmarked)               LOW
 5  CCCOc1ccc(C(c2ccc(OCC)cc2)C(C)C)cc1 (centres unmarked)              HIGH
 6  Cc1ccc(C(c2ccc(C)cc2)C(C)Cl)cc1 (centres unmarked)               MID
 7  CCOc1ccc(C(c2ccc(C)cc2)C(C)Cl)cc1 (centres unmarked)               LOW
 8   CCOc1ccc(C(c2ccc(OCC)cc2)C(C)(Cl)Cl)cc1              HIGH
 9      CCCOc1ccc(C(c2ccc(OCCC)cc2)C(C)C)cc1              HIGH
10  CCCOc1ccc(C(c2ccc(C)cc2)C(C)C)cc1 (centres unmarked)              HIGH
11  CCCOc1ccc(C(c2ccc(OCCC)cc2)C(C)Cl)cc1 (centres unmarked)              HIGH
12  CCCc1ccc(C(c2ccc(C)cc2)C(C)Cl)cc1 (centres unmarked)               MID
13  CCOc1ccc(C(c2ccc(OCC)cc2)C(C)Cl)cc1 (centres unmarked)               MID
14     COc1ccc(C(c2ccc(OC)cc2)C(C)(Cl)Cl)cc1               LOW
15  CCOc1ccc(C(c2ccc(OC)cc2)C(C)Cl)cc1 (centres unmarked)              HIGH
16    CCOc1ccc(C(c2ccc(OCC)cc2)C(C)(C)Cl)cc1              HIGH
17  CCCOc1ccc(C(c2ccc(OCC)cc2)C(C)Cl)cc1 (centres unmarked)               MID
18  CCCCOc1ccc(C(c2ccc(C)cc2)C(C)C)cc1 (centres unmarked)              HIGH
19  CCOc1ccc(C(c2ccc(OC)cc2)C(C)C)cc1 (centres unmarked)               MID
20        CCOc1ccc(C(c2ccc(OCC)cc2)C(C)C)cc1               LOW
